Provide the recorded switch fluorescence ratio for the entries that follow.
# System: ATP;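 further: ATP exposure 15 min at 22 °C before imaging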
# procedureDetails: switch fluorescence ratio, 500 uM ATP over buffer (Cy3 cluster intensity, sum of 5 cycles each) (fold (ratio)); higher = stronger signal-on switching upon ATP binding; sequences stand for … in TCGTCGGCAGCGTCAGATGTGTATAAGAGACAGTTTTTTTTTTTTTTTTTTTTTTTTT…TC
# condition: aptamer strand: ATP DNA aptamer (quencher-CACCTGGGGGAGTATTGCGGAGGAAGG + anchor), 100 nM annealed; ATP concentration: 500 uM
Answers are plain numbers.

// known answers, use as guide
[
  {
    "chainSequence": "AATGGATGTG",
    "switch fluorescence ratio": 0.991
  },
  {
    "chainSequence": "GAAATGGGTG",
    "switch fluorescence ratio": 1.04
  }
]

Hi! Can you tell me switch fluorescence ratio for each of these sequences?
1. GCTAGCGTGG
2. CGCTTGGTCG
3. GATCGCAGCG

1.02
1.03
0.986

Parameters: items (list). Returns: switch fluorescence ratio for each item.
1. GGCTGTACTT
2. TTCGTTAGCA
3. TTGCGCCCCC
4. AATATTGGTG
5. CGAGACAGGT
6. TTAAGGGATG
7. GGCGTCCTGG

1: 1.03; 2: 1.54; 3: 1.1; 4: 1.04; 5: 1.04; 6: 1.03; 7: 1.03

Would you be so kind as to report switch fluorescence ratio for each listed record?
1. TGTTGAGTGT
2. GGGGTGGGTG

[0.962, 1.03]

Need switch fluorescence ratio for each of these sequences.
1. AATACTCACG
2. TCGCTATGCC

[1.5, 0.991]
